Test system: human CD33
Experiment: Biacore SPR binding kinetics of anti-CD33 scFv-Fc clones with or without 10 µM MTX
Details: CD33; 0 µM MTX; 37° C., pH 7.4; scFv-Fc
Value kind: koff, kinetics toward antigen with 0 µM MTX

>>> assay_value("P02_E11: anti-CD33 clone with conditional affinity; VH SEQ ID NO: 15, VL SEQ ID NO: 16; also as scFv in CAR (antibody, V domains shown, Synthetic Antibody, also as scFv in CAR) VH: QVQLVESGGGLVQAGGSLRLSCAASRRSSRSWAMHWVRQAPGKGLEWVAVISYDGRLKYYADSVKGRFTISRDNAEYLVYLQMNSLRAEDTAVYYCAAEASTDNGLDYWGQGTLVTVSS VL: DIQMTQSPSSLSASVGDRVTITCRASQTISRHLNWYQQKPGKAPKLLIYSASSLASGVPSRFSGSGSGTDFTLTISSLQPEDFATYYCQQSHSAGTFGQGTKVEIK")
"0.0038 s⁻¹"
>>> assay_value("P16_E06: anti-CD33 clone with conditional affinity; VH SEQ ID NO: 29, VL SEQ ID NO: 30 (antibody, V domains shown, Synthetic Antibody) VH: QVQLVESGGGLVQAGGSLRLSCAASRRSSRSWAMHWVRQAPGKGLEWVAVISYDGRLKYYADSVKGRFTISRDNAEYLVYLQMNSLRAEDTAVYYCAAEGGDYPGTSDGGLDIWGQGTLVTVSS VL: DIQMTQSPSSLSASVGDRVTITCRASQSISNYLNWYQQKPGKAPKLLIYGASSLQSGVPSRFSGSGSGTDFTLTISSLQPEDFATYYCQQSYSAGTFGQGTKVEIK")
"0.011 s⁻¹"

Cited source for all entries: patent US20230192839A1
